- assay.target: xanthine oxidase (XO) (Bos taurus)
- Construct: XO (from bovine milk); purchased Merck (Darmstadt, Germany); host or cells: bovine milk (natural source)
- Sequence (P80457 whole entry): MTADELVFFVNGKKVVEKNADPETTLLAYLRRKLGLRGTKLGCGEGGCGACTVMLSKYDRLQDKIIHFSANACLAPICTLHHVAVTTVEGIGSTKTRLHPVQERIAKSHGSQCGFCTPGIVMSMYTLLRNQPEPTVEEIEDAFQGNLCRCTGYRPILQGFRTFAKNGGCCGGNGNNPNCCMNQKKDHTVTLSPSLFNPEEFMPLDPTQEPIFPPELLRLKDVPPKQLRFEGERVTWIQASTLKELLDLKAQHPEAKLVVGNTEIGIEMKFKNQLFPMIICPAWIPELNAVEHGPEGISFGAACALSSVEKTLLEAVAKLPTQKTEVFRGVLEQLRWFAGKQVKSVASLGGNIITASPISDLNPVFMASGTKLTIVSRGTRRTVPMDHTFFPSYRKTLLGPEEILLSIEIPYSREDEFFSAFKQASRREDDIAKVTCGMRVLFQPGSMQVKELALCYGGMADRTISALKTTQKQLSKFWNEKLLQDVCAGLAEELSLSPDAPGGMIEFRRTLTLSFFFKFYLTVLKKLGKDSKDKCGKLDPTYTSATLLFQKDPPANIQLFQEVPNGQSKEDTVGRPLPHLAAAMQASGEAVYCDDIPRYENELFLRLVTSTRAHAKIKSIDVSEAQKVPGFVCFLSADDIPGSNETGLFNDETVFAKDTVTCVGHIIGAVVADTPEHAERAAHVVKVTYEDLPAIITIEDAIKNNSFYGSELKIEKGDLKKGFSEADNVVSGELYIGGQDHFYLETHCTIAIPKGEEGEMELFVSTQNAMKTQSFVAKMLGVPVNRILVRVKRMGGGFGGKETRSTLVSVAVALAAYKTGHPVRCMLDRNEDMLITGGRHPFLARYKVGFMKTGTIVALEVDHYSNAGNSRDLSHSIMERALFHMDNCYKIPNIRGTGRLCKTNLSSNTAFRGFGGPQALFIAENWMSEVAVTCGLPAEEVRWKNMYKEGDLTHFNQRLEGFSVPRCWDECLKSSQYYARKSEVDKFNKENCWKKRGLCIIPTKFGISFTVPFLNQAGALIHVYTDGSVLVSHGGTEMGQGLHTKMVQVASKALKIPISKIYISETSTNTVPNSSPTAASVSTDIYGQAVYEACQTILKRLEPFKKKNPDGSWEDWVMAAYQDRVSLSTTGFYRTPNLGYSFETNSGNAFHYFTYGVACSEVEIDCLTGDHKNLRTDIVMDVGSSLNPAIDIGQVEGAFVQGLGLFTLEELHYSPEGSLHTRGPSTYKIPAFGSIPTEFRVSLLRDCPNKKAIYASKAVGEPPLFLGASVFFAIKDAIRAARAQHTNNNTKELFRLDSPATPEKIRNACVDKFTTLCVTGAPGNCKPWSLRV
- assay.text: XO assay with 6MP as substrate (6-thiouric acid formation, HPLC-UV);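 also: incubation in 0.05 mol L^−1 sodium phosphate buffer, with 6MP and 6-thiouric acid quantified by HPLC-UV and conversion taken as the product share of substrate plus product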
- Assay type: biochemical, bovine
- measurement.context: XO 0.01 U mL^−1; 6MP 5 μmol L^−1; 25 min, 37 °C, pH 7.5; read-out: IC50, 6MP oxidation
pIC50: −log10 of the molar value.
Hi, to clarify the labels: true covers pIC50 from 6 upward, false covers anything below 6.

-- ask Check the entry COc1cc([C@@H]2Oc3cc([C@H]4Oc5cc(O)cc(O)c5C(=O)[C@@H]4O)ccc3O[C@H]2CO)ccc1OS(=O)(=O)O [SBS, silybin B‐20‐O‐sulfate] : does pIC50 equal or exceed 6?
-- reply true

-- ask Check the entry COc1cc([C@H]2Oc3cc([C@H]4Oc5cc(O)cc(O)c5C(=O)[C@@H]4O)ccc3O[C@@H]2CO)ccc1OS(=O)(=O)O [SAS, silybin A‐20‐O‐sulfate] : does pIC50 equal or exceed 6?
-- reply false

-- ask Check the entry COc1cc(C2Oc3c(O)cc(-c4oc5cc(O)cc(O)c5c(=O)c4O)cc3C2CO)ccc1OS(=O)(=O)O (mixture of isomers) [DSCS, 2,3‐dehydrosilychristin‐19‐O‐sulfate] : does pIC50 equal or exceed 6?
-- reply true

-- ask Check the entry COc1cc([C@@H]2Oc3c(O)cc(-c4oc5cc(O)cc(O)c5c(=O)c4O)cc3[C@H]2CO)ccc1O [DSC] : does pIC50 equal or exceed 6?
-- reply true

-- ask Check the entry COc1cc([C@@H]2Oc3c(O)cc([C@H]4Oc5cc(O)cc(O)c5C(=O)[C@@H]4O)cc3[C@H]2CO)ccc1O [SC, silychristin] : does pIC50 equal or exceed 6?
-- reply false
